- System: ES6 (Ewing's Sarcoma)
- protocol: combination Emax (second highest fraction inhibited in the dose matrix, 72 h); higher = more inhibition; extreme values may be limits of the assay
Provide the reported combination Emax of each item.
Please give the numeric answer without any surrounding text.

stdin: combination Emax of NC1(C(=O)N[C@@H](CCO)c2ccc(Cl)cc2)CCN(c2ncnc3[nH]ccc23)CC1 [Capivasertib] + CCN(CCO)CCCOc1ccc2c(Nc3cc(CC(=O)Nc4cccc(F)c4)[nH]n3)ncnc2c1 [AZD2811] (first compound max 10 µM, 7x7, partner max 1 µM) on ES6 (Ewing's Sarcoma)?
stdout: 0.418

stdin: combination Emax of NC1(C(=O)N[C@@H](CCO)c2ccc(Cl)cc2)CCN(c2ncnc3[nH]ccc23)CC1 [Capivasertib] + C[C@@H]1COCCN1C2=NC(=NC(=C2)C3(CC3)[S@](=N)(=O)C)C4=C5C=CNC5=NC=C4 [AZD6738] (first compound max 10 µM, 7x7, partner max 10 µM) on ES6 (Ewing's Sarcoma)?
stdout: 0.667
